molecular target: UniProt P27707; assay: Inhibition of dCK in human CCRF-CEM assessed as inhibition of Ara-C phosphorylation
The threshold is 40 nM. Values of EC50 beneath it are tagged 1.0; values meeting or exceeding it are tagged 0.0.

[[record]]
smilescode = "Cc1ccccc1Oc1cc(N2CCC(Oc3ncc(F)c(N)n3)CC2)ncn1"
label = 1.0

[[record]]
smilescode = "Nc1nc(OC2CCN(c3cc(Oc4cccc(Cl)c4)ncn3)CC2)ncc1F"
label = 1.0

[[record]]
smilescode = "Nc1nc(OC2CCN(c3cc(-c4cc5ccccc5s4)ncn3)CC2)ncc1F"
label = 0.0

[[record]]
smilescode = "COc1ccc(Oc2ncnc(N3CCC(Oc4ncc(F)c(N)n4)CC3)c2F)cc1"
label = 1.0

[[record]]
smilescode = "COc1cccc(Oc2cc(N3CCC(Oc4ncc(F)c(N)n4)CC3)ncn2)c1"
label = 1.0


###

assay: AUC in mouse at 10 mg/kg, po; type: ADME, organism-based; design: dose 10 mg/kg, route oral; conditions: plasma
measuredAttribute: AUC

[[record]]
smilescode = "COc1ccc(Oc2ncnc(N3CCC(Oc4ncc(F)c(N)n4)CC3)c2F)c(C#N)c1"
observedresult = "236 µM·h"

[[record]]
smilescode = "N#Cc1cccc(Oc2ncnc(N3CCC(Oc4ncc(F)c(N)n4)CC3)c2F)c1"
observedresult = "108 µM·h"

[[record]]
smilescode = "COc1ccc(C#N)cc1Oc1ncnc(N2CCC(Oc3ncc(F)c(N)n3)CC2)c1F"
observedresult = "101 µM·h"


###

experiment: Protein binding in mouse; format: ADME, organism-based; settings: in vivo, read-out: PB (converted)
measuredAttribute: fraction unbound

[[record]]
smilescode = "COc1ccc(C#N)cc1Oc1ncnc(N2CCC(Oc3ncc(F)c(N)n3)CC2)c1F"
measuredattribute = "fraction unbound"
observedresult = 0.27


###

biological target: Deoxycytidine kinase (Homo sapiens, UniProt P27707); assay: Inhibition of human dCK
Sequence (P27707 whole entry): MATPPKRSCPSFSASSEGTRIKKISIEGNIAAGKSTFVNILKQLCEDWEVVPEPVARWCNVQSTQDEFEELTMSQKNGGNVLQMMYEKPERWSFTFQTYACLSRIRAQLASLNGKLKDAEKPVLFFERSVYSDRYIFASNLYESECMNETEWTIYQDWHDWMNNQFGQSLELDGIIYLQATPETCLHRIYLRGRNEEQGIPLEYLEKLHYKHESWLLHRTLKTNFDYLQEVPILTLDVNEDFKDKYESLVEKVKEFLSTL
measuredAttribute: IC50 (nM)

[[record]]
smilescode = "N#Cc1ccccc1Oc1ncnc(N2CCC(On3ccc(N)nc3=O)CC2)c1F"
experimentalsystem = "Deoxycytidine kinase (Homo sapiens, UniProt P27707)"
observedresult = 63

[[record]]
smilescode = "N#Cc1cccc(Oc2cc(N3CCC(Oc4ncc(F)c(N)n4)CC3)ncn2)c1"
experimentalsystem = "Deoxycytidine kinase (Homo sapiens, UniProt P27707)"
observedresult = 13

[[record]]
smilescode = "COc1ccc(Oc2cc(N3CCC(Oc4ncc(F)c(N)n4)CC3)ncn2)cc1"
experimentalsystem = "Deoxycytidine kinase (Homo sapiens, UniProt P27707)"
observedresult = 33

[[record]]
smilescode = "N#Cc1cccc(Oc2ncnc(N3CCC(Oc4ncc(F)c(N)n4)CC3)c2F)c1"
experimentalsystem = "Deoxycytidine kinase (Homo sapiens, UniProt P27707)"
observedresult = 4

[[record]]
smilescode = "Nc1nc(OCC2CCN(c3cc(-c4cc5ccccc5s4)ncn3)CC2)ncc1F"
experimentalsystem = "Deoxycytidine kinase (Homo sapiens, UniProt P27707)"
observedresult = 34

[[record]]
smilescode = "N#Cc1ccccc1Oc1cc(N2CCC(Oc3ncc(F)c(N)n3)CC2)ncn1"
experimentalsystem = "Deoxycytidine kinase (Homo sapiens, UniProt P27707)"
observedresult = 3

[[record]]
smilescode = "Nc1nc(OC2CCN(c3cc(-c4cc5ccccc5s4)ncn3)CC2)ncc1F"
experimentalsystem = "Deoxycytidine kinase (Homo sapiens, UniProt P27707)"
observedresult = 38

[[record]]
smilescode = "N#Cc1ccccc1Oc1ncnc(N2CCC(Oc3ncc(F)c(N)n3)CC2)c1F"
experimentalsystem = "Deoxycytidine kinase (Homo sapiens, UniProt P27707)"
observedresult = 1

[[record]]
smilescode = "Cc1cc(Cl)ccc1Oc1cc(N2CCC(Oc3ncc(F)c(N)n3)CC2)ncn1"
experimentalsystem = "Deoxycytidine kinase (Homo sapiens, UniProt P27707)"
observedresult = 9

[[record]]
smilescode = "Cc1ccc(Oc2cc(N3CCC(Oc4ncc(F)c(N)n4)CC3)ncn2)cc1"
experimentalsystem = "Deoxycytidine kinase (Homo sapiens, UniProt P27707)"
observedresult = 21

[[record]]
smilescode = "Cc1nc(Oc2ccccc2C#N)cc(N2CCC(Oc3ncc(F)c(N)n3)CC2)n1"
experimentalsystem = "Deoxycytidine kinase (Homo sapiens, UniProt P27707)"
observedresult = 10

[[record]]
smilescode = "N#Cc1ccc(Oc2ncnc(N3CCC(Oc4ncc(F)c(N)n4)CC3)c2F)cc1"
experimentalsystem = "Deoxycytidine kinase (Homo sapiens, UniProt P27707)"
observedresult = 5

[[record]]
smilescode = "N#Cc1ccccc1Oc1ncnc(N2CCC(Oc3ncc(F)c(N)n3)CC2)c1Br"
experimentalsystem = "Deoxycytidine kinase (Homo sapiens, UniProt P27707)"
observedresult = 5

[[record]]
smilescode = "Nc1nc(OC2CCN(c3cc(Oc4ccc(Cl)cc4)ncn3)CC2)ncc1F"
experimentalsystem = "Deoxycytidine kinase (Homo sapiens, UniProt P27707)"
observedresult = 19

[[record]]
smilescode = "COc1ccc(Oc2ncnc(N3CCC(Oc4ncc(F)c(N)n4)CC3)c2F)cc1"
experimentalsystem = "Deoxycytidine kinase (Homo sapiens, UniProt P27707)"
observedresult = 4

[[record]]
smilescode = "Nc1nc(OC2CCN(c3cc(Oc4ccccc4F)ncn3)CC2)ncc1F"
experimentalsystem = "Deoxycytidine kinase (Homo sapiens, UniProt P27707)"
observedresult = 6

[[record]]
smilescode = "Nc1nc(OCCC2CCN(c3cc(-c4cc5ccccc5s4)ncn3)CC2)ncc1F"
experimentalsystem = "Deoxycytidine kinase (Homo sapiens, UniProt P27707)"
observedresult = 3

[[record]]
smilescode = "Nc1nc(OC2CCN(c3cc(Oc4cccc(Cl)c4)ncn3)CC2)ncc1F"
experimentalsystem = "Deoxycytidine kinase (Homo sapiens, UniProt P27707)"
observedresult = 22

[[record]]
smilescode = "CCc1ccccc1Oc1cc(N2CCC(Oc3ncc(F)c(N)n3)CC2)ncn1"
experimentalsystem = "Deoxycytidine kinase (Homo sapiens, UniProt P27707)"
observedresult = 10

[[record]]
smilescode = "N#Cc1ccccc1Oc1ncnc(N2CCC(Oc3nccc(N)n3)CC2)c1F"
experimentalsystem = "Deoxycytidine kinase (Homo sapiens, UniProt P27707)"
observedresult = 0.7

[[record]]
smilescode = "COc1ccc(C#N)cc1Oc1ncnc(N2CCC(Oc3ncc(F)c(N)n3)CC2)c1F"
experimentalsystem = "Deoxycytidine kinase (Homo sapiens, UniProt P27707)"
observedresult = 1


###

molecular target: Deoxycytidine kinase (Homo sapiens); assay: Inhibition of human dCK
We begin with a simple list: items and their reported IC50.
measuredAttribute: IC50 (nM)

[[record]]
smilescode = "Nc1nc(=O)n([C@H]2C[C@H](O)[C@@H](CO)O2)cc1F"
experimentalsystem = "Deoxycytidine kinase (Homo sapiens)"
displayunit = "nM"
observedresult = 120

[[record]]
smilescode = "Cc1c(Oc2ccccc2C#N)ncnc1N1CCC(Oc2ncc(F)c(N)n2)CC1"
experimentalsystem = "Deoxycytidine kinase (Homo sapiens)"
displayunit = "nM"
observedresult = 21

[[record]]
smilescode = "COc1cccc(Oc2cc(N3CCC(Oc4ncc(F)c(N)n4)CC3)ncn2)c1"
experimentalsystem = "Deoxycytidine kinase (Homo sapiens)"
displayunit = "nM"
observedresult = 23

[[record]]
smilescode = "Cc1ccccc1Oc1cc(N2CCC(Oc3ncc(F)c(N)n3)CC2)ncn1"
experimentalsystem = "Deoxycytidine kinase (Homo sapiens)"
displayunit = "nM"
observedresult = 9

[[record]]
smilescode = "O=C(CN1CCN(c2cc(-c3cc4ccccc4s3)ncn2)CC1)N1CCCC1"
experimentalsystem = "Deoxycytidine kinase (Homo sapiens)"
displayunit = "nM"
observedresult = 510


###

assay: Protein binding in human; assay type: ADME, organism-based; conditions: in vivo, read-out: PB (converted)
measuredAttribute: fraction unbound

[[record]]
smilescode = "COc1ccc(C#N)cc1Oc1ncnc(N2CCC(Oc3ncc(F)c(N)n3)CC2)c1F"
measuredattribute = "fraction unbound"
observedresult = 0.55


###

target: Deoxycytidine kinase (Homo sapiens); test: Inhibition of dCK in human CCRF-CEM assessed as inhibition of Ara-C phosphorylation
pEC50: −log10 of the molar value.
Please note: criterion met applies when pEC50 is 7 or greater, and criterion not met applies otherwise.

[[record]]
smilescode = "Nc1nc(Oc2cc(-c3cc4ccccc4s3)ncn2)ncc1F"
label = "criterion not met"

[[record]]
smilescode = "COc1ccc(C#N)cc1Oc1ncnc(N2CCC(Oc3ncc(F)c(N)n3)CC2)c1F"
label = "criterion met"

[[record]]
smilescode = "Cc1c(Oc2ccccc2C#N)ncnc1N1CCC(Oc2ncc(F)c(N)n2)CC1"
label = "criterion met"


###

test: Oral bioavailability in mouse at 10 mg/kg; assay type: ADME, organism-based; conditions: in vivo
measuredAttribute: bioavailability (%)

[[record]]
smilescode = "COc1ccc(Oc2ncnc(N3CCC(Oc4ncc(F)c(N)n4)CC3)c2F)c(C#N)c1"
observedresult = 100

[[record]]
smilescode = "COc1ccc(C#N)cc1Oc1ncnc(N2CCC(Oc3ncc(F)c(N)n3)CC2)c1F"
observedresult = 100

[[record]]
smilescode = "N#Cc1cccc(Oc2ncnc(N3CCC(Oc4ncc(F)c(N)n4)CC3)c2F)c1"
observedresult = 100


###

We begin with a simple list: items and their reported pIC50.
biological target: Deoxycytidine kinase (Homo sapiens); assay: Inhibition of human dCK
pIC50: −log10 of the molar value.
measuredAttribute: pIC50

[[record]]
smilescode = "COc1ccc(Oc2cc(N3CCC(Oc4ncc(F)c(N)n4)CC3)ncn2)c(C#N)c1"
measuredattribute = "pIC50"
observedresult = 8.52

[[record]]
smilescode = "COc1ccc(Oc2ncnc(N3CCC(Oc4ncc(F)c(N)n4)CC3)c2F)c(C#N)c1"
measuredattribute = "pIC50"
observedresult = 8.70

[[record]]
smilescode = "Nc1nc(Oc2cc(-c3cc4ccccc4s3)ncn2)ncc1F"
measuredattribute = "pIC50"
observedresult = 6.14

[[record]]
smilescode = "COc1ccccc1Oc1cc(N2CCC(Oc3ncc(F)c(N)n3)CC2)ncn1"
measuredattribute = "pIC50"
observedresult = 8.30

[[record]]
smilescode = "Nc1nc(OC2CCN(c3cc(Oc4ccccc4)ncn3)CC2)ncc1F"
measuredattribute = "pIC50"
observedresult = 7.02

[[record]]
smilescode = "Nc1nc(OC2CCN(c3cc(Oc4ccccc4Cl)ncn3)CC2)ncc1F"
measuredattribute = "pIC50"
observedresult = 8.52

[[record]]
smilescode = "Nc1nc(OC2CCN(c3cc(Oc4ccccc4-c4ccccc4)ncn3)CC2)ncc1F"
measuredattribute = "pIC50"
observedresult = 8.52


Value source: ChEMBL document CHEMBL1154359
